Data provenance: the supplement of paper PMC10567573

B1: TMEM40 (parent)
chain: YGETDFHKQDGKAGLFSQEQYERN

variants of: B1; test: protein stability index of a GFP-peptide fusion (GPS, HEK-293T) (PSI 1-6); higher = more stable; conditions: c terminus: a fixed tail appended;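 note: lentivirally expressed fusions sorted by FACS into six bins by GFP to DsRed ratio, PSI derived from sequencing read proportions per bin multiplied by bin number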

mutationName | protein stability index
T4Y | 4.04
E19N | 3.9
H7M | 3.9
K8N | 4.01
K12R | 4.1
E22A | 3.91
G11R | 4.08
G2T | 4.11
N24M | 3.89
G11Q | 4.04
G11I | 3.9
Q20R | 3.92
A13I | 4.03
S17V | 4.08
Q9A | 3.96
